- tested.system: lipid peroxidation due to the autoxidation of linoleic acid
- test.name: Linoleic acid-MCLA system, Test Case 4
- condition.details: linoleic acid 10 mM, MCLA 2 μM, 1-butanol, 37° C.; read-out: 50% inhibition concentration
measured.parameter: IC50 (µM)
Write the number in µM without appending the unit.

Ask | Quick check: IC50 of CC1Cc2c(c(C(C)(C)C)cc(O)c2C(C)(C)C)O1 (stereo not shown) [Comparison 6, reference compound] ?
Reply | 19

Ask | Param item = CC(C)(C)c1c(O)ccc2c1CC(CO)O2 (stereo not shown) [Comparison 3, reference compound] ; retrieve measured IC50.
Reply | 54

Ask | Request the reported IC50 associated with CC1(C)Cc2c(cc(C(C)(C)C)c(O)c2C(C)(C)C)O1 [Compound c]
Reply | 7

Ask | Suppose we examine the compound CC(C)(C)c1cc(O)c(C(C)(C)C)c2c1OCC2 [Comparison 5, reference compound] ; what IC50 value has been reported?
Reply | 41

Ask | # IC50 lookup, item CC(C)(C)c1cc2c(c(C(C)(C)C)c1O)CC1(CCCCC1)O2 [Compound n]
Reply | 9

Ask | Fill in: IC50 of CC(C)(C)c1cc2c(c(C(C)(C)C)c1O)CC(C(C)(C)C)O2 (stereo not shown) [Compound h] is ___
Reply | 9

Ask | Looking for the measured IC50 of CC(C)(C)c1cc2c(cc1O)CC(C(C)(C)C)O2 (stereo not shown) [Comparison 4, reference compound] , can you help?
Reply | 42

* * *

Provide the reported pIC50 of each item.
- tested.system: lipid peroxidation due to the autoxidation of linoleic acid
- test.name: Linoleic acid-MCLA system, Test Case 4
- condition.details: linoleic acid 10 mM, MCLA 2 μM, 1-butanol, 37° C.; read-out: 50% inhibition concentration
Convention used: pIC50 is expressed as -log10 of the molar concentration.

Ask | What value of pIC50 has been recorded for this entry: CCC(C)c1cc2c(c(C(C)(C)C)c1O)CCO2 (stereo not drawn) [Comparison 7, reference compound]
Reply | 5.15

Ask | May I ask what pIC50 has been recorded for `CCCCCC1(CCCCC)Cc2c(cc(C(C)(C)C)c(O)c2C(C)(C)C)O1` ?
Reply | 5.30

Ask | Given the molecule CC1Cc2c(ccc(O)c2C(C)(C)C)O1 (stereo not drawn) [Comparison 2, reference compound] , what is its reported pIC50?
Reply | 4.27

Ask | # input molecule: CC(C)(C)c1c(O)ccc2c1CCO2 [Comparison 1, reference compound] ; wanted: its pIC50
Reply | 4.21

Ask | Reported pIC50, molecule `CC(C)CCC1(CCC(C)C)Cc2c(cc(C(C)(C)C)c(O)c2C(C)(C)C)O1` : ____
Reply | 5.22

Ask | Look up pIC50 for this molecule: `CCCCC1(CCCC)Cc2c(cc(C(C)(C)C)c(O)c2C(C)(C)C)O1`
Reply | 5.10

Ask | Look up pIC50: `CC(C)(C)c1cc2c(c(C(C)(C)C)c1O)CC1(CCCC1)O2`
Reply | 5.15

Ask | I have this molecule here, `CC(C)(C)c1cc2c(c(C(C)(C)C)c1O)CCO2` , and I need its recorded pIC50.
Reply | 5.15

Ask | Which pIC50 is reported for this molecule? `CCCc1c2c(c(C(C)(C)C)c(O)c1C(C)(C)C)CC(C)(C)O2`
Reply | 5.30
